Measured values drawn from patent US20180334702A1 for this set.

measured-on: CDK1/cyclin A2 (UniProt P06493 1-297; P20248 1-432, limits assumed)
Sequence (P06493 whole entry, chain 1 of 2): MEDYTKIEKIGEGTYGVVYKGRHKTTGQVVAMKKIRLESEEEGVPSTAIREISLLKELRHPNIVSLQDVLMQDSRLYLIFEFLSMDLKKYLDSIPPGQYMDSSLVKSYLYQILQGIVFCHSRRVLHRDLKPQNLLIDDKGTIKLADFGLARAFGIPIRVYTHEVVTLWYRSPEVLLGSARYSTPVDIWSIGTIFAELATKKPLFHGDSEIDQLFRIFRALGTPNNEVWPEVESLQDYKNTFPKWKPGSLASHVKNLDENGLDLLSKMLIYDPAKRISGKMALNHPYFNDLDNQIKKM
Sequence (P20248 whole entry, chain 2 of 2): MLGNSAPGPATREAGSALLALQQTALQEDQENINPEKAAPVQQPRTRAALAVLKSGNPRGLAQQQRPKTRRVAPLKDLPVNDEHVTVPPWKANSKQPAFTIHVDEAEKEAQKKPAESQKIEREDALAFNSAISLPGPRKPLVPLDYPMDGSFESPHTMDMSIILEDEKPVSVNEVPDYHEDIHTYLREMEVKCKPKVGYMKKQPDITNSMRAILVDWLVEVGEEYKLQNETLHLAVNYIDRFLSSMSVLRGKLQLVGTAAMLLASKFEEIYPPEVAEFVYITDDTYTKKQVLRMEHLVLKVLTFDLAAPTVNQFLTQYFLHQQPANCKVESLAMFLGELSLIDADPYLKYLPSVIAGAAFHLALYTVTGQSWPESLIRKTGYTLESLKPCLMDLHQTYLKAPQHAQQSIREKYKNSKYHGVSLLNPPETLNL
assay-name: cell-based or functional assay
No end group written: not given here. *: point of attachment. aminohexane = linker joining biotin to the N-terminal residue; Biotin = O=C1N[C@H]2[C@H](CS[C@H]2CCCCC(=O)*)N1
Item-by-item account of relative luminescence intensity (CDK6 = 100%)
measured-quantity: relative luminescence intensity (CDK6 = 100%)

{"columns": ["binder", "quantitative-result"],
 "data": [
  ["{Biotin-aminohexane}-GGGKAPLTPKKAK [Comparative Polypeptide 5]", 143],
  ["{Biotin-aminohexane}-LVEMTGLSPRDIRVD [Polypeptide 26]", 295],
  ["{Biotin-aminohexane}-GGGKAPLTPKDAD [Polypeptide 22]", 27],
  ["{Biotin-aminohexane}-LVEMTGLSPRVIRVW [Comparative Polypeptide 7]", 1150],
  ["{Biotin-aminohexane}-GGGRAAPLSPIPHIPR [Comparative Polypeptide 6]", 119],
  ["{Biotin-aminohexane}-RRRFRPASPLRGPPK [Comparative Polypeptide 2]", 318],
  ["{Biotin-aminohexane}-RRRFRPASPLDGPPD [Polypeptide 18]", 22]
]}
